test: yeast display, Sf9 membrane polyspecificity reagent, FACS + sequencing; frameworks hold sequencing errors
value_type: polyreactivity (PSR sort gate)

Recorded polyreactivity (PSR sort gate), per entry:
| input_sequence | observed |
| --- | --- |
| QVQLVESGGGLVQAGGSLRLSCAASGFTHDWYAMGWYRQAPGKERELVAAIWSAGTTYYADSVKGRFTISRDNAMNTVYLQMNSLKPEDPAVYYCATVSDYDFGLYDYWGQGTQVTVSS | low polyreactivity |
| QVQLVESGGCLVQAGGSLRLSCASSGFTFDIYAMGWYRQAPGKERELVATISFTGDTTSYADSGKGRFTISRDNAKNTVYLQMNSLKPEDTAVYYCAADGSYPLSVGRENLHYAEFDYWGKGTQVTVSS | low polyreactivity |
| QVQLVESGGGLVQAGGSLRLSCAASGSTFSYYAMGWYRQAPGKERELVAAITRGGSTYYADSVKGRFTISRDNAKNTVYLQMNSLKPEDTAVYYWAGQLLRYRYYYWGQGTQVNVSS | high polyreactivity |
| QVQLVESGGGLVQAGGSLRLSCAASGFIFARNAMGWYRQAPGKERELVARITKRGGSTFYADSVKGRFTISRDNAKNTVYLQMNSLKPEDPAVYYCNADGYHGHVEGDYWGQGTQVTVSS | high polyreactivity |
| QVQLVESGGGLVQAGGSLRLSCAASGSIFRGYTMGWYRQAPGKERELVAAISRSGGSTYYADSVKGRFTISRDNAKNTVYIQMNSLKPEDTAVYYCNVVYFVTTSPGYDYWGQGTQVTVSS | high polyreactivity |

Which polyreactivity (PSR sort gate) value is on record for QVQLEESGGGLVHAGGSLRLICAASGSTFSTYAMRWYRQAPGKERELVARITRGGSTNYADSVKGRFTISRDNAMNTVYLQMNCLKPDDTAVYYFSAGIRSGRKYDYWGQGTQVTVSS ?
low polyreactivity

Reported polyreactivity (PSR sort gate) for QVQLVESGGGLVQAGGSLRLSCAASGSILSHNAMGWYRQAPGKERELVAAITTSGSTTYADSVKGRFTISRDNAKNTVYLQMNSLKPEDTAVYYCNARPDSWSDTAQNRYDYWGQGTQVTVSS : what is it?
low polyreactivity

Please give the measured polyreactivity (PSR sort gate) for this sequence: QVQLVESGGGLVQAGGSLRLICAASGSTFFYNAMGWYRQAPGKEREFVAAIRWRGGSTYYADSVKGRFTISRDNAKNTVYLQMNSLKPEDTAVYYCAAVYYRWEYDYWGQGTQVTVSS
high polyreactivity

Bench note: what polyreactivity (PSR sort gate) did QVQLQESGGVQEQEGGSLRQSCAESGTIFLYAYMGWYRQAPGKERELVAAIDVGTTTNYADSVKGRFTICRDNAKNTVYLQMNSLKPDDTAVYYCAANLGYLDDLGYWGQGTQVTVSS show?
low polyreactivity

Which polyreactivity (PSR sort gate) value belongs to QVQLVESGGGLDQEGGSLRLSSAASGRTFRGYAMGWYIQAPGKEREIVDAISRGTVGTYYADSVKGRFTISRDNAKNTVYLQMISLKPEDTAVYYCAADRFANFSNLRLGYYSWGQGTQLTVSS ?
low polyreactivity

Can you look up the measured polyreactivity (PSR sort gate) of QVQLVESGGGLVQAGGSLRLSCAASGRTFHSNAMGWYRKAPGKERELVAAIRFGGGSTYYADSVKGRFTISRDNAKNTVYLQMNSLKPEDTAVYYCNASPLWIGWEIVPVGSSHYDYWGQGTQVTVSS for me?
low polyreactivity
